Tested on: HepG2
Assay: cytotoxicity call (relative viability < 0.9)
Conditions: 10 µM
In all, about 39,000 compounds went through this assay and about 3,300 (8.5%) were called active. The sample as a whole holds a higher share of actives than the screen did.
Outcome codes: YES = active, NO = inactive

                            compound_smiles  system_under_test  classification
0  C=CCC[C@@H](Cc1ccc(F)cc1)C(=O)OC[C@H](Cc1c[nH]c2ccccc12)NC(=O)[C@@H](CC=C)CC(=O)N[C@H](CO)Cc1ccccc1              HepG2              NO
1  O=C(C[C@H]1CC[C@H](NS(=O)(=O)c2ccccc2)[C@@H](CO)O1)NCc1ccncn1              HepG2              NO
2  C=CCC[C@H](Cc1ccc(F)cc1)C(=O)OC[C@H](Cc1c[nH]c2ccccc12)NC(=O)[C@H](CC=C)CC(=O)N[C@@H](CO)Cc1ccccc1              HepG2              NO
3  C=CCC[C@@H](Cc1ccc(F)cc1)C(=O)OC[C@H](Cc1c[nH]c2ccccc12)NC(=O)[C@@H](CC=C)CC(=O)N[C@@H](CO)Cc1ccccc1              HepG2             YES
4  C=CCC[C@H](Cc1ccc(F)cc1)C(=O)OC[C@H](Cc1c[nH]c2ccccc12)NC(=O)[C@@H](CC=C)CC(=O)N[C@@H](CO)Cc1ccccc1              HepG2             YES
5  C=CCC[C@@H](Cc1ccc(F)cc1)C(=O)OC[C@@H](Cc1c[nH]c2ccccc12)NC(=O)[C@@H](CC=C)CC(=O)N[C@@H](CO)Cc1ccccc1              HepG2              NO
